biological target: Mitogen-activated protein kinase 12 (Homo sapiens) (UniProt P53778); assay: Inhibition of p38-gamma at 10 uM by HTRF assay relative to control
Sequence (P53778 whole entry): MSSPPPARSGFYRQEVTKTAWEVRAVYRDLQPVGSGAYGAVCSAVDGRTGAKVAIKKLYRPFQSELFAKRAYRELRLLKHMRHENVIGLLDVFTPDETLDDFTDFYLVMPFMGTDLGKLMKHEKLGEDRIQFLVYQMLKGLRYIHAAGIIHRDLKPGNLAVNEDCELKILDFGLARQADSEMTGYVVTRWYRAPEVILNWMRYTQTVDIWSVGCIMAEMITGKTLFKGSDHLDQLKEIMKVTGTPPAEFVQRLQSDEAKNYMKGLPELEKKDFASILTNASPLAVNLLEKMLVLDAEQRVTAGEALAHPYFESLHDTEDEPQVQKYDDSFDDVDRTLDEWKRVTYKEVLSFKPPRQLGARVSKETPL
Property Measured: inhibition (%)

Some solved entries appear below for comparison.
# Molecule, inhibition [%]
records = [
    ("O=C(NC[C@@H]1CCCO1)c1cccc(Nc2nccc(Nc3ccc4ncsc4c3)n2)c1", 3),
    ("Cc1cccc(Oc2ccnc(N3CCC[C@H]3C(=O)NCc3cccnc3)n2)c1", 0),
    ("COc1cccc(Nc2cc(N3CCC[C@H]3C(=O)NCCc3ccc(O)cc3)nc(N)n2)c1", 0),
    ("COC[C@@H]1CCCN1C(=O)[C@@H]1CCCN1c1nccc(Nc2ccccc2)n1", 4),
    ("O=C(c1nc(SCc2ccc(Cl)cc2)n2ccccc12)N1CCN(c2ncnc3c2CN(Cc2ccccc2)CC3)CC1", 0),
]

a = CC(=O)CCCCC(=O)N1CCN(c2nccc(Oc3cccc(C)c3)n2)CC1
b = CN(CCc1ccccn1)C(=O)c1cccc(Nc2nccc(Nc3ccc4ncsc4c3)n2)c1
Qu. Smaller inhibition value? Options are a and b Give the label of your selection.
Ans. a
(a: 0%, b: 1%)

1 = Cc1cccc(N(C)c2cc(Nc3cccc(C(=O)N(CC(C)C)CC(C)C)c3)ncn2)c1
2 = O=C(c1nc(SCc2ccc(Cl)cc2)n2ccccc12)N1CCN(c2cc(Nc3cccc(Br)c3)ncn2)CC1
3 = Cc1cccc(N(C)c2cc(N3CCN(CC(=O)Nc4nc(-c5ccccc5)cs4)CC3)ncn2)c1
4 = Nc1nc(Nc2ccccc2)cc(N2CCC(C(=O)NCCc3ccccn3)CC2)n1
Qu. Hey, quick one: sort these by inhibition, low to high? Use the labels to give the requested order.
Ans. 2, 1, 3, 4

1 = Cc1cccc(Nc2cc(Nc3cccc(C(=O)N(CC(C)O)CC(C)O)c3)ncn2)c1 (centres undefined)
2 = CC(=O)N1CCN(C(=O)c2cccc(Nc3cc(N(C)c4cccc(C)c4)ncn3)c2)CC1
3 = O=C(COc1ccccc1)N1CCN(c2nccc(Nc3ccc4ncsc4c3)n2)CC1
Qu. Output the entries ranked by inhibition from maximum down to minimum. Use the labels to give the requested order.
Ans. 3, 2, 1

I = Cc1cccc(Oc2ccnc(N3CCC[C@H]3C(=O)NCCCn3ccnc3)n2)c1
II = Clc1ccc2sc(CN3CCN(c4ncnc5c4CN(Cc4ccccc4)CC5)CC3)cc2c1
Qu. Smaller inhibition value? Options are I and II Give the label of your selection.
Ans. I
(I: 0%, II: 2%)
